target: Cyclin-C/Cyclin-dependent kinase 19 (Homo sapiens) (UniProt Q9BWU1+P24863); assay: Inhibition of humanGST-tagged CDK19/Cyc C expressed in Sf21 cells at 1 uM measured after 1 hr by fluorescence plate reader relative to control
measured.property: inhibition (%)

| mol.smiles | numeric.value |
| --- | --- |
| O=C(/C=C/c1cnccc1-c1cnn(Cc2ccccc2)c1)Nc1ccc(CN2CCOCC2)cc1 | 101 |
| Cn1cc(-c2ccncc2/C=C/C(=O)Nc2ccc3c(c2)CCN3)cn1 | 96 |
| Cc1nn(C)cc1-c1ccncc1/C=C/C(=O)Nc1ccc(CCc2nnco2)cc1 | 98 |
| O=C(/C=C/c1cnccc1-c1cnn(C2CC2)c1)Nc1ccc(COC(F)F)cc1 | 93 |
| Cn1cnc2ccc(-c3c(F)cncc3/C=C/C(=O)Nc3ccc(CN4CC(F)(F)C4)cc3)cc21 | 101 |
| CC1CN(Cc2ccc(NC(=O)/C=C/c3cnccc3-c3cnn(C4CC4)c3)cc2)C1 | 97 |
| CN(C)CCc1ccc(NC(=O)/C=C/c2cnccc2-c2cnn(C)c2)cc1 | 98 |
| CC(C)(O)Cc1ccc(NC(=O)/C=C/c2cncc(F)c2-c2cnn(C3CC3)c2)c(F)c1 | 99 |
| CN1CCc2ccc(NC(=O)/C=C/c3cnccc3-c3cnn(C)c3)cc2C1 | 98 |
| Cn1cnc2ccc(-c3ccncc3/C=C/C(=O)Nc3ccc4c(ccn4CC(F)(F)F)c3)cc21 | 84 |
